Data provenance is paper PMC5114727.

test system: PC-3 cells; test: Resazurin cytotoxicity assay, PC-3; type: cell-based, human; details: highest concentration 40 μM; bound = highest concentration with < 50 % inhibition; read-out: PC-3 cytotoxicity IC50 ± SEM
Kindly state pIC50 for each of the entries shown.
Answers are plain numbers, as −log10 of the molar value.

CC(=O)C1=C(c2ccccc2)C(=O)c2ccccc2C1=O [Amb4317088] | 5.85

Next compound, pIC50 to be filled in.
pIC50 for PC-3 cells with input CC(=O)c1ccc2c3c(onc13)-c1ccccc1C2=O [Amb3377585] equals 5.26

====

test system: PC-3 cells; assay: Resazurin cytotoxicity assay, PC-3; assay type: cell-based, human; conditions: highest concentration 40 μM; bound = highest concentration with < 50 % inhibition; read-out: PC-3 cytotoxicity IC50 ± SEM
Please provide measured IC50 for the entries that follow.

Would you please look over these solved cases?
OC1CCCCC1C1(NC(=S)Nc2ccccc2)CCCCC1 (stereo not drawn) [MMV665980] | > 20 µM
Cc1csc(Sc2ncnc3sccc23)n1 [Amb180780] | > 40 µM

Please look at the following molecule next.
Recorded IC50 for CC1=CC(=O)C(C(C)C)=C/C1=N/OS(=O)(=O)c1ccccc1 [STK 740987] on PC-3 cells was > 20 µM
